assayed.target: human CD33 R69G (human) (UniProt P20138)
Sequence (P20138 18-259 R69G): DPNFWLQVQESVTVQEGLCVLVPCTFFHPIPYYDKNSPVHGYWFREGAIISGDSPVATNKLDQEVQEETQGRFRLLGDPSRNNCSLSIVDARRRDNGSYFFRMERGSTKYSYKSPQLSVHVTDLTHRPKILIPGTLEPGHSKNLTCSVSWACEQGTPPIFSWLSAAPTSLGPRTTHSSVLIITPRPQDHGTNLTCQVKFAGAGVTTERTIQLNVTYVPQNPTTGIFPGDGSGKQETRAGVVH
test.details: SPR, Fab captured, 37C
Field: Kd. Provide a value for each of the binders that follow.
Respond with the bare value in nM.

Entry ADI-11835 Fab (Fab, V domains shown) VH: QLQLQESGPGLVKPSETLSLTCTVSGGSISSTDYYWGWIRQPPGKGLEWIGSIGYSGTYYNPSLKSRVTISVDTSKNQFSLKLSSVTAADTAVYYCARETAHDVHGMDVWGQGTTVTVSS VL: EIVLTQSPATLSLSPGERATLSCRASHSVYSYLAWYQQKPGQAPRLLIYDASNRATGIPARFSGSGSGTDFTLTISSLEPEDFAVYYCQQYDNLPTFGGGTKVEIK ; Kd = 0.67

Entry ADI-11819 Fab (Fab, V domains shown) VH: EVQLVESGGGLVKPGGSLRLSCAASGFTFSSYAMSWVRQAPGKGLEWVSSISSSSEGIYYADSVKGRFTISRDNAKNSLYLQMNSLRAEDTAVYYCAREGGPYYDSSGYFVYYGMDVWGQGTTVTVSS VL: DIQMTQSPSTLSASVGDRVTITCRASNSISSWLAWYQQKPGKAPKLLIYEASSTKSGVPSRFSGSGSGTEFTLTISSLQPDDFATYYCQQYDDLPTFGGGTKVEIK ; Kd = 0.09

Entry ADI-10157 Fab (Fab, V domains shown) VH: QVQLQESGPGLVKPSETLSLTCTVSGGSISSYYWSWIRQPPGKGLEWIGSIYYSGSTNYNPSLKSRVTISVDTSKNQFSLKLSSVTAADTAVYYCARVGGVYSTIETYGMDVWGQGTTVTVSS VL: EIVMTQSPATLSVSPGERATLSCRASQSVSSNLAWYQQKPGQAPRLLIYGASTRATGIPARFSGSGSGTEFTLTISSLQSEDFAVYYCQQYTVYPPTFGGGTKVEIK ; Kd = 17.8
